runDescription: Plasma protein binding in dog
Type: ADME, cell-free, Canis lupus familiaris
conditionParameters: read-out: PPB (converted)
metricName: fraction unbound

1) COc1nc(C(=O)NC[C@](C)(O)C(F)(F)F)c(N)cc1C(F)(F)F [ICENTICAFTOR] : 0.052

====

runDescription: Solubility of compound at pH 6.8 incubated for 12 hrs by HPLC analysis
Assay type: physicochemical
conditionParameters: buffer
metricName: solubility at 12 h (µg/mL)

1. Nc1cc(C(F)(F)F)c(Br)nc1C(=O)NC[C@@H](O)C(F)(F)F : 140
2. Nc1cc(C(F)(F)F)c(Br)nc1C(=O)NCCC(F)(F)F : 170
3. COC(=O)c1nc(-c2ccco2)c(C(F)(F)F)cc1N : 2
4. C[C@](O)(CNC(=O)c1nc(C(F)(F)F)c(C(F)(F)F)cc1N)C(F)(F)F : 230

Ref: ChEMBL document CHEMBL6121060
